tested on: HCT116; assay: efficacy (fitted maximal change in viability relative to DMSO control); higher = less cytotoxic (negative = loss of viability); conditions: 48 h

compound: Clc1ccc(Nc2nnc(Cc3ccncc3)c3ccccc23)cc1 [Vatalanib]
target.desc: HCT116
efficacy / %: -27.3
--
compound: CCC(C)N1\N=C/N(C1=O)C2=CC=C(C=C2)N3CCN(CC3)C4=CC=C(OC[C@H]5CO[C@@](C[N]6C=NC=N6)(O5)C7=CC=C(Cl)C=C7Cl)C=C4 (some centres not stated) [Itraconazole]
target.desc: HCT116
efficacy / %: -32.6
--
compound: Cc1cccc(-c2[nH]c(C(C)(C)C)nc2-c2ccc3nccnc3c2)n1
target.desc: HCT116
efficacy / %: -85.8
--
compound: C[C@H]1[C@H](OC(=O)CCC(=O)O)O[C@@H]2O[C@@]3(C)CC[C@H]4[C@H](C)CC[C@@H]1[C@@]24OO3 [Artesunate]
target.desc: HCT116
efficacy / %: -62.6
--
compound: C[C@@H]1CN(CC(=O)N2CC(C)(C)c3ncc(Cc4ccc(F)cc4)cc32)[C@@H](CN2CCOC[C@H]2C)CN1 [AT-IAP]
target.desc: HCT116
efficacy / %: -62.8
--
compound: Cc1ccc([N+](=O)[O-])cc1[S+](=O)([O-])N(C)/N=C/c1cnc2ccc(Br)cn12 [PIK-75]
target.desc: HCT116
efficacy / %: -60.8
--
compound: c1cc(OCCN2CCCCC2)cc(-c2n[nH]c3ccc(-c4nc[nH]n4)cc23)c1 [CC-401]
target.desc: HCT116;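 also: Luminescence-based viability readout, five doses per compound, normalized against on-plate DMSO and empty-well controls, followed by dose-response curve fitting for every drug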
efficacy / %: -70.1
